Assay: inhibitors of mutant huntingtin aggregation, primary screen, imaging, exon1htt(103Q)mCFP cells, high-content imaging (AID 483);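 further: compound exposure lasted 3 days before fixation; percent of the per-plate median nuclei count of sample wells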
Conditions: exon1htt(103Q)mCFP cell line, aggregate imaging, at 2 µM; measured here: cell count, toxicity
As shown below, each of these compounds has a reported nuclei count value.
Give just the numeric value; % need not be written.

Answer with the recorded nuclei count of CC(C)(C)Nc1nc(NC(C)(C)C)nc(-n2ccnc2)n1 only. 81.5

For the compound COc1ccc(Br)cc1S(=O)(=O)N1CC(C)OC(C)C1 (configuration not stated) , report nuclei count. 94

Indicate the recorded nuclei count value for this compound: COc1ccccc1N1C(=O)c2ccccc2NC1c1ccncc1 (configuration not stated) 103

Quickly give me recorded nuclei count for CCCOc1ccc(N2CC(C(=O)Nc3ccc4c(c3)OCO4)CC2=O)cc1 (configuration not stated) 81

***
Tell us which nuclei count value is on record for CCOc1cc2[nH]c(=O)n(CCCCC(=O)NCc3ccco3)c(=O)c2cc1OCC 117

Using known records, supply nuclei count for COC(=O)c1ccc(NC(=O)CN2CCCC2)cc1 107

Dear colleague, please send me the reported nuclei count for C=CCOc1ccc(C2/C(=C(\O)c3c(C)[nH]c(C(=O)OC)c3C)C(=O)C(=O)N2CCN(C)C)cc1 (configuration not stated) when you can. 99.7

Read off the recorded nuclei count for CCC(C)(NC(=O)CNC(C)=O)C(=O)NC1CCCCC1 (configuration not stated) 122

Give reported nuclei count value for CCCN1CCN(CCCNC(=O)Cn2ncc3c4ccccc4n(C)c3c2=O)CC1 101

Could you please provide reported nuclei count for COCCn1c(SCC(=O)N2CCc3ccccc32)nc2c(c1=O)SC(C)C2 (configuration not stated) ? Thanks! 87.2

State, in one line, measured nuclei count of CCOC(=O)N1CCC(c2cc(=O)n3[nH]c(C)c(-c4ccc(F)cc4)c3n2)CC1 120

Specify measured nuclei count for CC1CCN(Cc2ccc(-c3nn[nH]n3)cc2)CC1 . 96.8

Look up nuclei count of Cc1nc2sc(C(c3ccco3)N3CCN(c4ccccc4F)CC3)c(O)n2n1 (configuration not stated) and report it. 104

Using known records, supply nuclei count for O=C(c1ccccc1)c1ccncc1 103

Hello, please tell me recorded nuclei count for this one: CCOC(=O)N1CCC(NC(=O)CN2C(=O)CCSc3ccccc32)CC1 101

For Cc1cc(Cl)ccc1OCCCC(=O)NO , write its nuclei count. 65.5

Please report the measured nuclei count for Cc1cc(C(=O)CSc2nnc(-c3ccco3)o2)c(C)n1CC1COc2ccccc2O1 (configuration not stated) 90.2

Identify nuclei count associated with the compound CCOC(=O)CNC(=O)Nc1nnc(-c2ccc(OCC)cc2)o1 91.3

Give me measured nuclei count, please, for this compound: COc1ccc(-c2ccc(-c3nnn(CC(C)=O)n3)cc2)cc1 111

// Input: Cc1oc(-c2ccccc2F)nc1CS(=O)(=O)CC(=O)NCCCN1CCc2ccccc2C1 . Output its nuclei count only. 68.5

Indicate the recorded nuclei count value for this compound: O=C(COc1ccc(Cl)cc1)NCc1nnc(SCC(=O)Nc2ccc3c(c2)OCCO3)o1 99.9

Indicate the recorded nuclei count value for this compound: O=C(c1ccc(S(=O)(=O)N2CCOCC2)cc1)N(c1ccc(F)cc1)C1C=CS(=O)(=O)C1 (configuration not stated) 111

* * *

Test: DUSP6 inhibitors restoring Erk phosphorylation by chemical complementation, primary imaging in DUSP6-transfected HeLa (AID 609)
Settings: HeLa MKP-3 transfected, phospho-Erk imaging KS statistic; measured here: cell density z-score; at 10 µM; cells stimulated with TPA for 15 min
Each entry below carries its reported z-score.
I only need the number, thanks.

Output z-score of Cc1sc(-n2c(C)cc(/C=N/n3cnnc3)c2C)c(C#N)c1C -1.21

Provide only the value of recorded z-score for N#Cc1cccc(-n2c(-c3ccccc3)nnc2-c2ccccc2)c1C#N -3.17

Please list z-score recorded for the compound COC(=O)CC1=C(C(=O)OC)C(c2cccc(OCC(N)=O)c2)C(C#N)=C(N)O1 (stereo not given) -1.4

***
Supply z-score value. Item: COc1nnnc2c1sc1nc(N3CCOCC3)c3c(c12)CC(C)(C)OC3 0.493

Read off the recorded z-score for CC1(C)CC(=O)C(C=NCCN2CCN(CCc3ccccc3)CC2)=C(O)C1 -1.16
